Biological target: T1, SHANK1, Q9Y566
T1 sequence (Q9Y566 658-767, limits assumed, looked up): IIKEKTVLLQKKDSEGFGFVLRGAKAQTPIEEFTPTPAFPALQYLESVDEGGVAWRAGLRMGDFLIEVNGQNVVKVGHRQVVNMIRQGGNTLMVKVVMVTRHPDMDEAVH
Assay: holdup assay
Set-up: key: below the threshold = too weak to quantify, mostly under pKd 3.1 to 4
Conditions: plain residues with an end cap or a label only (N-terminal biotin on a linker: ahx)
Listed here: items and their measured pKd.
property-label: pKd

1) QPRTWLQSPV [RTKN, Q9BST9]    3.74
2) HTHSYIETHV [CNKSR2, Q8WXI2]    4.24
3) TQKFRASTAL [FRMPD1, Q5SYB0]    4.62
4) QNTDDVQTSF [ACE2, Q9BYF1]    4.75
